target: human Peroxisome Proliferator-activated Receptor alpha (PPARa), PPARA (gene 5465) (UniProt Q07869); experiment: ATG_PPARa_TRANS: Attagene TRANS-FACTORIAL HepG2 Assay for human Peroxisome Proliferator-activated Receptor alpha (PPARa) (AID 2283001)
Sequence (Q07869 whole entry, looked up): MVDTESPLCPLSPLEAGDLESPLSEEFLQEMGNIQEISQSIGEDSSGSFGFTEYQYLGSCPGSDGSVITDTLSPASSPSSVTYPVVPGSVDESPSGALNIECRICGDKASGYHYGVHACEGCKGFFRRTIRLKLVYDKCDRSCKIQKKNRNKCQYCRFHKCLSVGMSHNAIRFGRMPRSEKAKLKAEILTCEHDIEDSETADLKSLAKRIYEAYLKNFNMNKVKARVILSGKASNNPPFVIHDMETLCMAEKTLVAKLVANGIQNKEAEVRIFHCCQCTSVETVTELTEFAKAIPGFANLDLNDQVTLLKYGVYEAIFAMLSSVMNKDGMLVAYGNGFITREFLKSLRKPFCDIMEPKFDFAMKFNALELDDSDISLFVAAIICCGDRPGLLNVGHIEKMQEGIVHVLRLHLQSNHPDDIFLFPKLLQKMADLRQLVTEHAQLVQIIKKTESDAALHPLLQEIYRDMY
Inconclusive results are not listed. Active and inactive are the calls of the source. How the source made its calls: active means hit-call score of the fitted dose curve at least 0.9, where 1 is the maximum; inconclusive means response in the unintended direction; inactive means score below 0.9.
Pick from active, inactive when you respond.

Task: # outcome recorded in this test, key = `Cc1ccccc1CCO`
Result: inactive

Task: # outcome recorded in this test, key = CCC1(C)C(=O)N(Cl)C(=O)N1Cl (centres undefined)
Result: inactive

Task: # outcome recorded in this test, key = `CC1(C)C(=O)N(CO)C(=O)N1CO`
Result: inactive

Task: # outcome recorded in this test, key = `C=C[C@@]1(C)CC(=O)[C@]2(O)[C@@]3(C)[C@@H](O)CCC(C)(C)[C@@H]3[C@H](O)[C@H](OC(C)=O)[C@@]2(C)O1`
Result: active

Task: # outcome recorded in this test, key = `O=C(O)c1ccc2c(c1)C(=O)OC2=O`
Result: inactive

Task: # outcome recorded in this test, key = `Oc1ccc(-c2ccccc2)c(Cl)c1`
Result: active

Task: # outcome recorded in this test, key = CCCC1CCCC(=O)O1 (centres undefined)
Result: inactive

Task: # outcome recorded in this test, key = `CC(=O)c1ccccc1O`
Result: inactive

Task: # outcome recorded in this test, key = `C=C(C)OC(C)=O`
Result: inactive

Task: # outcome recorded in this test, key = `Oc1ccccc1Cc1ccccc1O`
Result: inactive

Task: # outcome recorded in this test, key = `O=S(=O)(O)c1ccc(N=Nc2c(O)ccc3ccccc23)cc1`
Result: inactive

Task: # outcome recorded in this test, key = `Nc1ccc(Cl)c(N)c1`
Result: inactive

Task: # outcome recorded in this test, key = `O=C(Cl)c1c(Cl)c(Cl)c(C(=O)Cl)c(Cl)c1Cl`
Result: inactive

Task: # outcome recorded in this test, key = O=C(O)CC(C(=O)O)S(=O)(=O)O (centres undefined)
Result: inactive

Task: # outcome recorded in this test, key = `CC(=O)OCC=C(C)C`
Result: inactive

Task: # outcome recorded in this test, key = CCCCCC[C@@H](O)C/C=C\CCCCCCCC(=O)OCC(O)CO (some centres undefined)
Result: active

Task: # outcome recorded in this test, key = `C=CCNCC=C`
Result: inactive

Task: # outcome recorded in this test, key = `Clc1cc(Cl)c(Cl)c(Cl)c1Cl`
Result: inactive

Task: # outcome recorded in this test, key = `CCc1cccc(C)c1N`
Result: inactive

Task: # outcome recorded in this test, key = `CCOC(=O)/C=C\C(=O)OCC`
Result: active

Task: # outcome recorded in this test, key = CC1=NN(c2ccc(S(=O)(=O)O)cc2)C(=O)C1N=Nc1ccccc1 (centres undefined)
Result: inactive

Task: # outcome recorded in this test, key = `C/C=C/C=C/CCCCCCCO`
Result: inactive

Task: # outcome recorded in this test, key = `CC(=O)OCCc1ccccc1`
Result: inactive

Task: # outcome recorded in this test, key = CCC(C)N (centres undefined)
Result: inactive

Task: # outcome recorded in this test, key = `CC=CC(=O)OCC(C)C`
Result: inactive

Task: # outcome recorded in this test, key = CCC(C)c1ccccc1 (centres undefined)
Result: inactive

Task: # outcome recorded in this test, key = `CCCCCC1=CCCC1=O`
Result: inactive

Task: # outcome recorded in this test, key = CC1OC(=O)C(C)OC1=O (centres undefined)
Result: inactive

Task: # outcome recorded in this test, key = `CCCCCCCCCCCC(=O)N(C)CC(=O)O`
Result: active

Task: # outcome recorded in this test, key = CCOC(=O)C1=NN(c2ccc(Cl)cc2Cl)C(C)(C(=O)OCC)C1 (centres undefined)
Result: inactive

Task: # outcome recorded in this test, key = CCCC(C)C(=O)OCC (centres undefined)
Result: inactive

Task: # outcome recorded in this test, key = `CCOC(=O)OC(=O)OCC`
Result: inactive

Task: # outcome recorded in this test, key = `O=C(Nc1ccccc1)c1cc(Cl)ccc1O`
Result: inactive

Task: # outcome recorded in this test, key = `C=CC(=O)OCCCCCCCC(C)C`
Result: inactive
